Test system: SK-MEL-5 melanoma
Assay: NCI-60 one-dose screen, 48 h (100 = growth as untreated, 0 = no growth, -100 = all killed)
Conditions: 10 µM unless noted
Compounds without any hit were thinned out: in the full panel of roughly 83,000, 20% have a hit.
value.kind: growth (%)

> print(dat)
                                    compound     assayed.target  value.observed
 1                      Cc1cc(C)c(CBr)c(C)c1  SK-MEL-5 melanoma            97.7
 2  C=C1C[C@](OC)([C@H](O)C(=O)N[C@@H](OC)[C@@H]2C[C@@H](O)C(C)(C)[C@@H](C[C@@H](COC)OC)O2)O[C@H](C)[C@@H]1C  SK-MEL-5 melanoma            -100
 3           O=C1CN=C(c2ccc(Cl)cc2)c2sccc2N1  SK-MEL-5 melanoma            99.5
 4  CC12CCC3C(CCC4=CC(=O)CCC43CF)C1CCC2=O (stereo not given)  SK-MEL-5 melanoma             109
 5                     CSc1nc(Cl)cc(N2CC2)n1  SK-MEL-5 melanoma             105
 6       Nc1c(F)cc(-c2nc3cc(F)ccc3[se]2)cc1F  SK-MEL-5 melanoma            56.1
 7  COc1ccc(NC([Se])=NC23CC4CC(CC(C4)C2)C3)cc1  SK-MEL-5 melanoma           -85.5
 8          COc1ccc(O)c(CNC(=O)CN2CCCC2=O)c1  SK-MEL-5 melanoma             107
 9  COC(=O)[C@@H](C)C[C@H](Cc1ccccc1)NC(=O)c1csc(CC[C@H](C(C)C)N(C)C(=O)[C@@H](NC(=O)[C@H]2CCCCN2C)C(C)C)n1  SK-MEL-5 melanoma           -19.5
10             COc1cccc(/C=C/[N+](=O)[O-])c1  SK-MEL-5 melanoma            80.6

The reported numbers originate from PubChem BioAssay (NCI).
